Molecular target: human C3b (Homo sapiens)
Construct: purchased Complement Technology, Tyler, TX, USA
Sequence (P01024 23-667 limits assumed): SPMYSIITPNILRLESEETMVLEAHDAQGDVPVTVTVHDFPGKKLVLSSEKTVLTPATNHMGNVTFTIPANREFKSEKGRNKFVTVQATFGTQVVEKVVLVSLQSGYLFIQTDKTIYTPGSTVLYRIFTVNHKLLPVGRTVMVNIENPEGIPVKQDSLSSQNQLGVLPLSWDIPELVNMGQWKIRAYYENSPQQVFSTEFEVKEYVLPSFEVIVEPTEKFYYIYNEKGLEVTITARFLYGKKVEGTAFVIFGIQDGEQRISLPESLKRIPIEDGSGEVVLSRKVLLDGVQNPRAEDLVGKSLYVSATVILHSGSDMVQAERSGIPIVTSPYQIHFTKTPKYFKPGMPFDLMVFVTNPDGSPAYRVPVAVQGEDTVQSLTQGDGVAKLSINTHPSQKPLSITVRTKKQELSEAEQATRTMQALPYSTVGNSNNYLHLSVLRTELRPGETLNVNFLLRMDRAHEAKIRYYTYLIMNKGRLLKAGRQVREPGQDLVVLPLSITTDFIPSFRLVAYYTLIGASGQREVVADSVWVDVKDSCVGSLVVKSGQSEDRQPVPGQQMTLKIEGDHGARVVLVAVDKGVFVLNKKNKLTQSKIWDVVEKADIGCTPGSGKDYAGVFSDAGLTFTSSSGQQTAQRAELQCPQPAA
Sequence (P01024 749-1663 partner limits assumed): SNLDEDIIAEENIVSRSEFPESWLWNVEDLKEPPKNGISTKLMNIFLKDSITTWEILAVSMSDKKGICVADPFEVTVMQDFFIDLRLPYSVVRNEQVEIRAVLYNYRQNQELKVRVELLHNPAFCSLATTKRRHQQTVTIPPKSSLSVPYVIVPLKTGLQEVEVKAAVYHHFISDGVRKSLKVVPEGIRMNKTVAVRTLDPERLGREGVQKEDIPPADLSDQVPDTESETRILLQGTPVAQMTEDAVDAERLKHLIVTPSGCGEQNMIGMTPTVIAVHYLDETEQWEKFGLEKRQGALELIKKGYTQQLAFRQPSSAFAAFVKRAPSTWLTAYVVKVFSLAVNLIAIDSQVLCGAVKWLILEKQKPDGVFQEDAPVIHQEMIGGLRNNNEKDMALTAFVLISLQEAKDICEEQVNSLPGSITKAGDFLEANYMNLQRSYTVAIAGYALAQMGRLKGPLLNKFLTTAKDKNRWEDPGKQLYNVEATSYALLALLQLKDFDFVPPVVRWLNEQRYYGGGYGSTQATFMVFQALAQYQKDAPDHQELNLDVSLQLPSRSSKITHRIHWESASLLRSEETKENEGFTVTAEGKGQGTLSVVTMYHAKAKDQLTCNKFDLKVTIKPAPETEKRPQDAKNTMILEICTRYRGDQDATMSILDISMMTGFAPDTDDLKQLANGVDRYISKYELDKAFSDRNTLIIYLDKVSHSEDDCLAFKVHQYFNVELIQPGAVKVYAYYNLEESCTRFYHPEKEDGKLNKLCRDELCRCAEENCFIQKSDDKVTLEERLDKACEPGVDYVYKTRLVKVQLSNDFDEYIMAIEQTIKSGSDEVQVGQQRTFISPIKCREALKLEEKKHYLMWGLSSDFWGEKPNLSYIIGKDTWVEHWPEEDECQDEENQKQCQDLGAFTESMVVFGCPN
Experiment: SPR kinetic binding to immobilized human C3b
Details: SPR, 1:1 Langmuir fit, average of 3 independent experiments, SD in brackets
Where a SMILES comes first, the peptide text is derived from it. Bridges are numbered along the chain shown (N, C = ends). [ ]: non-standard residue; d: D form. Trp(1-Me) = Cn1cc(C[C@H](N)C(=O)O)c2ccccc21; NMeI = CC[C@H](C)[C@H](NC)C(=O)O; aIle = CC[C@@H](C)[C@H](N)C(=O)O; Sar = CNCC(=O)O
Would you mind telling me the reported k d, affinity hC3b of each entry?

Which measured k d, affinity hC3b value corresponds to CC[C@H](C)[C@H](NC(C)=O)C(=O)N[C@H]1CSSC[C@@H](C(=O)N[C@H](C(N)=O)[C@@H](C)O)NC(=O)[C@H](CCCNC(=N)N)NC(=O)[C@H](Cc2c[nH]cn2)NC(=O)[C@H](C)NC(=O)CNC(=O)[C@H](Cc2c[nH]c3ccccc23)NC(=O)[C@H](CC(=O)O)NC(=O)[C@H](CCC(N)=O)NC(=O)[C@H](Cc2c[nH]c3ccccc23)NC(=O)[C@H]([C@@H](C)CC)NC1=O [Cp01-Val3Ile] (Ac-ICIWQDWGAHRCT-NH2; disulfide 2-12) ?
1.7(0.1) 10^–2 s^–1

Here is the next compound: CC[C@@H](C)[C@@H]1NC(=O)[C@@H](NC(=O)[C@@H](NC(=O)[C@H](N)Cc2ccc(O)cc2)[C@@H](C)CC)CSSC[C@@H](C(=O)N(C)[C@H](C(N)=O)[C@@H](C)CC)NC(=O)[C@H](CCCNC(=N)N)NC(=O)[C@H](Cc2c[nH]cn2)NC(=O)[C@H](C)NC(=O)CN(C)C(=O)[C@H](Cc2c[nH]c3ccccc23)NC(=O)[C@H](CC(=O)O)NC(=O)[C@H](CCC(N)=O)NC(=O)[C@H](Cc2cn(C)c3ccccc23)NC1=O [Cp40-Val3aIle] (H-[dY]IC[aIle][Trp(1-Me)]QDW[Sar]AHRC[NMeI]-NH2; disulfide 3-13)
0.7(0.3) 10^–2 s^–1
